test system: human Factor 7 mRNA; assay: Dose-dependent antisense inhibition of human Factor 7 in HepB3 cells, transfection with electroporation; format: cell-based; settings: 3.125 μM, 16 hours (Example 7, Table 15)
In the oligonucleotide strings, read from the 5' end, every base follows the letter of its sugar. An asterisk marks phosphorothioate; unmarked linkages are phosphodiester. Other units and linkages are bracketed, terminal groups are in braces. A string of capitals states the bases alone. e = 2'-O-(2-methoxyethyl) (MOE); [5mC] = 5-methylcytosine; d = 2'-deoxy (DNA)
Quick list: percent inhibition of Factor 7 mRNA, relative to untreated control cells per entry.
Answer format: value, then unit.

422296 (antisense e[5mC]*e[5mC]*dG*dA*dG*dT*dT*d[5mC]*dT*dG*d[5mC]*dA*dG*dG*dA*eG*e[5mC]*eG*eG*e[5mC]) [compound 422296] = 62%
422292 (antisense eG*eT*dT*d[5mC]*dT*dG*d[5mC]*dA*dG*dG*dA*dG*d[5mC]*dG*dG*e[5mC]*e[5mC]*eT*eA*eA) [compound 422292] = 36%
422183 (antisense eG*e[5mC]*eG*d[5mC]*d[5mC]*dA*d[5mC]*d[5mC]*d[5mC]*dG*d[5mC]*d[5mC]*dG*dG*d[5mC]*dT*d[5mC]*eT*eG*e[5mC]) [compound 422183] = 16%

Provide measured percent inhibition of Factor 7 mRNA, relative to untreated control cells value, entry: 422295 (antisense e[5mC]*eG*dA*dG*dT*dT*d[5mC]*dT*dG*d[5mC]*dA*dG*dG*dA*dG*e[5mC]*eG*eG*e[5mC]*e[5mC]) [compound 422295]
10%

Provide measured percent inhibition of Factor 7 mRNA, relative to untreated control cells value, entry: 407939 (antisense eT*eG*e[5mC]*eA*eG*d[5mC]*d[5mC]*d[5mC]*dG*dG*d[5mC]*dA*d[5mC]*d[5mC]*d[5mC]*eA*eG*e[5mC]*eG*eA) [compound 407939]
18%

Provide measured percent inhibition of Factor 7 mRNA, relative to untreated control cells value, entry: 422215 (antisense eG*eT*eT*d[5mC]*dT*dG*d[5mC]*dA*dG*dG*dA*dG*d[5mC]*dG*dG*d[5mC]*d[5mC]*eT*eA*eA) [compound 422215]
11%

---

Quick list: % Inhibition (human Factor 7 mRNA) per entry.
system: human Factor 7 mRNA; test: Antisense inhibition of human Factor 7 mRNA in HepB3 cells, lipofectin, 50 nM, real-time RT-PCR; type: cell-based; details: Example 1; HepB3 cells, lipofectin, 50 nM, ~24 h, relative to untreated control cells
In the oligonucleotide strings, read from the 5' end, every base follows the letter of its sugar. An asterisk marks phosphorothioate; unmarked linkages are phosphodiester. Other units and linkages are bracketed, terminal groups are in braces. A string of capitals states the bases alone. e = 2'-O-(2-methoxyethyl) (MOE); [5mC] = 5-methylcytosine; d = 2'-deoxy (DNA)
Answer format: value, then unit.

407894 (antisense eG*eT*eT*e[5mC]*e[5mC]*dG*dG*d[5mC]*d[5mC]*d[5mC]*dT*d[5mC]*dG*dA*dA*eG*eG*e[5mC]*eA*eG) [compound 407894] = 77%
407905 (antisense e[5mC]*e[5mC]*eA*eG*eT*dT*d[5mC]*dT*dT*dG*dA*dT*dT*dT*dT*eG*eT*e[5mC]*eG*eA) [compound 407905] = 40%
407657 (antisense eG*eG*eG*eA*e[5mC]*dT*d[5mC]*dA*dG*d[5mC]*dA*dA*dG*dA*dG*eT*eG*e[5mC]*eA*eG) [compound 407657] = 26%

Provide measured % Inhibition (human Factor 7 mRNA) value, entry: 407605 (antisense eT*eT*eG*eA*eG*dG*d[5mC]*dA*d[5mC]*dA*d[5mC]*dT*dG*dG*dT*e[5mC]*e[5mC]*e[5mC]*e[5mC]*eA) [compound 407605]
58%

Provide measured % Inhibition (human Factor 7 mRNA) value, entry: 407619 (antisense eA*eG*eA*eA*eT*dA*dG*dG*dT*dA*dT*dT*dT*dT*dT*e[5mC]*e[5mC]*eA*e[5mC]*eA) [compound 407619]
64%

---

tested on: human Factor 7 mRNA; assay: Antisense inhibition of human Factor 7 mRNA in HepB3 cells, lipofectin, 50 nM, real-time RT-PCR; type: cell-based; conditions: HepB3 cells, lipofectin, 50 nM antisense oligonucleotide, approximately 24 hours, primer probe set RTS 2927, relative to untreated control
In the oligonucleotide strings, read from the 5' end, every base follows the letter of its sugar. An asterisk marks phosphorothioate; unmarked linkages are phosphodiester. Other units and linkages are bracketed, terminal groups are in braces. A string of capitals states the bases alone. e = 2'-O-(2-methoxyethyl) (MOE); [5mC] = 5-methylcytosine; d = 2'-deoxy (DNA)
Readout Name: % Inhibition of human Factor 7 mRNA levels (%)
The reply should contain only the number, in %.

Examples from the recorded data:
416508 (antisense e[5mC]*eG*eA*eG*eT*dT*d[5mC]*dT*dG*d[5mC]*dA*dG*dG*dA*dG*e[5mC]*eG*eG*e[5mC]*e[5mC]) [compound 416508] = 67
416522 (antisense eG*eG*e[5mC]*eT*eG*dA*dG*dA*dA*dT*dT*dG*d[5mC]*d[5mC]*d[5mC]*eA*eG*eG*eG*e[5mC]) [compound 416522] = 25
416466 (antisense eT*eG*eT*eG*eG*dG*d[5mC]*d[5mC]*dT*d[5mC]*d[5mC]*dA*d[5mC]*dT*dG*eT*e[5mC]*e[5mC]*e[5mC]*e[5mC]) [compound 416466] = 57
416486 (antisense eA*eT*eT*eG*eA*d[5mC]*dA*dA*dG*dG*dG*d[5mC]*dT*dG*dT*eG*eG*e[5mC]*eA*eG) [compound 416486] = 12
416475 (antisense e[5mC]*eT*e[5mC]*eA*eG*d[5mC]*dT*dG*dG*dG*d[5mC]*dT*dG*dT*d[5mC]*eT*eG*e[5mC]*e[5mC]*eT) [compound 416475] = 70
416534 (antisense eA*eT*eG*e[5mC]*eA*d[5mC]*dA*d[5mC]*d[5mC]*dA*dG*dG*dG*d[5mC]*dT*eG*e[5mC]*eT*eG*eG) [compound 416534] = 32
416423 (antisense eG*eT*eG*eT*eT*dT*d[5mC]*dT*d[5mC]*d[5mC]*dT*d[5mC]*d[5mC]*dT*dG*eA*eG*eG*e[5mC]*e[5mC]) [compound 416423] = 51
416444 (antisense eA*e[5mC]*eA*eG*eT*dT*d[5mC]*d[5mC]*dG*dG*d[5mC]*d[5mC]*d[5mC]*dT*d[5mC]*eG*eA*eA*eG*eG) [compound 416444] = 24

State recorded % Inhibition of human Factor 7 mRNA levels with human Factor 7 mRNA, entry 416481 (antisense eA*eG*eA*eT*eG*dA*dT*dA*dA*dT*dG*dG*dA*dT*dA*eA*eG*eA*eA*e[5mC]) [compound 416481] , no comment.
15

State recorded % Inhibition of human Factor 7 mRNA levels with human Factor 7 mRNA, entry 416563 (antisense eG*e[5mC]*e[5mC]*eT*eG*d[5mC]*dA*dT*dT*dT*d[5mC]*d[5mC]*d[5mC]*dA*dT*eT*eG*eG*e[5mC]*eA) [compound 416563] , no comment.
0

State recorded % Inhibition of human Factor 7 mRNA levels with human Factor 7 mRNA, entry 416469 (antisense eG*e[5mC]*eA*eG*e[5mC]*d[5mC]*dA*d[5mC]*dT*d[5mC]*dG*dA*dT*dG*dT*eA*e[5mC]*eT*eG*eG) [compound 416469] , no comment.
55

State recorded % Inhibition of human Factor 7 mRNA levels with human Factor 7 mRNA, entry 416558 (antisense eT*eG*eA*e[5mC]*eA*dG*d[5mC]*dA*d[5mC]*dG*dA*dA*dG*d[5mC]*d[5mC]*e[5mC]*eA*eG*eA*eG) [compound 416558] , no comment.
19

State recorded % Inhibition of human Factor 7 mRNA levels with human Factor 7 mRNA, entry 416525 (antisense eT*eA*eT*eG*eA*dG*dT*d[5mC]*d[5mC]*dT*dT*d[5mC]*dT*dA*dG*eT*eG*eA*eA*eT) [compound 416525] , no comment.
5

State recorded % Inhibition of human Factor 7 mRNA levels with human Factor 7 mRNA, entry 416545 (antisense eA*eG*eA*eA*eA*d[5mC]*dA*dT*d[5mC]*d[5mC]*d[5mC]*dA*dT*dT*dT*eT*e[5mC]*e[5mC]*e[5mC]*eA) [compound 416545] , no comment.
8

State recorded % Inhibition of human Factor 7 mRNA levels with human Factor 7 mRNA, entry 416568 (antisense e[5mC]*eA*eT*eT*eG*dT*dG*d[5mC]*d[5mC]*dT*dG*dG*d[5mC]*dA*d[5mC]*eA*e[5mC]*eA*eG*eG) [compound 416568] , no comment.
14

State recorded % Inhibition of human Factor 7 mRNA levels with human Factor 7 mRNA, entry 416548 (antisense eA*eG*eG*eT*eG*dA*dA*dT*dG*dA*dA*dA*dT*dT*d[5mC]*eT*eA*e[5mC]*e[5mC]*eT) [compound 416548] , no comment.
29

State recorded % Inhibition of human Factor 7 mRNA levels with human Factor 7 mRNA, entry 416446 (antisense eG*eG*eT*e[5mC]*eA*d[5mC]*dT*dG*d[5mC]*dA*dG*dT*dA*d[5mC]*dT*eG*e[5mC]*eT*e[5mC]*eA) [compound 416446] , no comment.
64
